SYSTEM_NAME: T1, human CD14 antigen (B294801, histidine tagged) (Homo sapiens, UniProt P08571)
T1 construct: His; purchased Shanghai BaiYing Biotechnology Co., Ltd B294801 (Batch number 20200518A22)
T1 sequence (P08571 20-345): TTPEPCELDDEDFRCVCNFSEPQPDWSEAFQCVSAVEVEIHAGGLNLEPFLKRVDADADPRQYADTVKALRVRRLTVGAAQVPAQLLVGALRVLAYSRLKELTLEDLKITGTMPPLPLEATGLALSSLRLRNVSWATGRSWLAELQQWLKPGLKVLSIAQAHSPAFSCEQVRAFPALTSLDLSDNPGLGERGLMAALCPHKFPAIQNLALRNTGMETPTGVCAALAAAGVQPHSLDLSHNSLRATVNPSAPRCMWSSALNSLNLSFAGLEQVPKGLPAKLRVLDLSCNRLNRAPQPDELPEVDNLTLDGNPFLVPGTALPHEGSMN
PROTOCOL: Biacore 8K kinetic and affinity test of antibodies without PTM sites (Example 9)
Format: binding
DETAILS: Biacore 8K, analyte B294801 0.1953125-25 nM, capture conc. 1 μg/mL
ASSAY_ENDPOINT: kon (1:1 binding) (M⁻¹ s⁻¹)
Reply with just the number (in M⁻¹ s⁻¹).

MPDDAD001: D6DD3D014-derived antibody with PTM site removed; VL amino acid nos. 34, 35: DS (antibody, V domains shown) VH: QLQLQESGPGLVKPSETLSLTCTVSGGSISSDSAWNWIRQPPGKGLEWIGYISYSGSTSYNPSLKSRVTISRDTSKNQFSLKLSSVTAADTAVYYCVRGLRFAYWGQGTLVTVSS VL: DIQLTQSPSSLSASVGDRVTITCRASESVDSYVDSFLHWYQQKPGKAPKLLIYRASNLQSGVPSRFSGSGSRTDFTLTISSLQPEDVATYYCQQSNEDPYTFGQGTKLEIK | 847000

Q. Name the reported kon (1:1 binding) value associated with the molecule MPDDAD004: D6DD3D014-derived antibody with PTM site removed; VL amino acid nos. 34, 35: NA (antibody, V domains shown) VH: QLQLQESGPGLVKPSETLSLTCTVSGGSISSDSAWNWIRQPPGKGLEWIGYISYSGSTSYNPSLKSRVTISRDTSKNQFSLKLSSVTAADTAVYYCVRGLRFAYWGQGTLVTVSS VL: DIQLTQSPSSLSASVGDRVTITCRASESVDSYVNAFLHWYQQKPGKAPKLLIYRASNLQSGVPSRFSGSGSRTDFTLTISSLQPEDVATYYCQQSNEDPYTFGQGTKLEIK
A. 775000
